Please respond with reported Oct4-luc fold Induction for every item in the list.
- Tested on: Oct4-luc
- ASSAY_EXPLANATION: Oct4-luc reporter induction by OAC compounds
- Assay type: cell-based
The reply should be a number in fold, with the unit left off.

Give recorded Oct4-luc fold Induction. `COc1cccc(C(=O)Nc2ccc3[nH]ncc3c2)c1OC`
1.37

Give recorded Oct4-luc fold Induction. `O=C(Nc1ccc2[nH]nnc2c1)c1cccc(Cl)c1`
1

Give recorded Oct4-luc fold Induction. `O=C(Nc1ccc2[nH]ncc2c1)c1ccccc1Br`
1.46

Give recorded Oct4-luc fold Induction. `O=C(Nc1ccc2[nH]ccc2c1)c1ccc(F)cc1`
3.84

Give recorded Oct4-luc fold Induction. `COc1ccc(C(=O)Nc2ccc3[nH]ccc3c2)cc1`
5.46

Give recorded Oct4-luc fold Induction. `CCc1ccc(C(=O)Nc2ccc3[nH]ncc3c2)cc1`
4.51

Give recorded Oct4-luc fold Induction. `CC(C)c1ccc(C(=O)Nc2ccc3[nH]ncc3c2)cc1`
3.78

Give recorded Oct4-luc fold Induction. `COc1ccc(C(=O)Nc2ccc3[nH]ncc3c2)c(OC)c1`
1.42

Give recorded Oct4-luc fold Induction. `O=C(Nc1ccc2[nH]ncc2c1)c1cccc(F)c1`
1.27

Give recorded Oct4-luc fold Induction. `O=C(Nc1ccc2[nH]ncc2c1)c1ccccc1`
1.89
